The origin of these recorded values is patent US10941182.

Target: T1, human APJ receptor (human, UniProt P35414 1-380)
T1 sequence (looked up): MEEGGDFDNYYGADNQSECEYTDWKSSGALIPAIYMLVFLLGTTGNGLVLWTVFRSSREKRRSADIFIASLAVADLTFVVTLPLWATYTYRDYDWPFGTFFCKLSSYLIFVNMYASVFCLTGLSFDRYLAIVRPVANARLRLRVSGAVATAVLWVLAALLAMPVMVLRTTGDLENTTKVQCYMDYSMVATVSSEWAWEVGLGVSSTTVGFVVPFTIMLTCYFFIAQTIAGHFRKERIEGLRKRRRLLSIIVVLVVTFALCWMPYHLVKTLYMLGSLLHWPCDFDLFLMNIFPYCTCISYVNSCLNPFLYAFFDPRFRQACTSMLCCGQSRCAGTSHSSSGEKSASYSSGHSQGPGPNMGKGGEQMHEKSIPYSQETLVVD
Assay: cell-based or functional assay
Starred links: 1 amine or outer side, 2 acyl side, 3 side chain; linkers in the order of their positions; H or OH if unused. Non-standard residues stand in square brackets, D forms with d. *: point of attachment. AC4Abu = α-carboxy-4-aminobutyric acid, O=C(C(CCN[*:1])C(=O)[*:3])[*:2]; Oic = O=C(O)[C@@H]1C[C@@H]2CCCC[C@@H]2N1; Phe(4-Cl) = N[C@@H](Cc1ccc(Cl)cc1)C(=O)O; γGlu = O=C(O)[C@H](CCC(=O)[*:2])N[*:1]; NMeR = CN[C@@H](CCCNC(=N)N)C(=O)O; Palmitoyl = CCCCCCCCCCCCCCCC(=O)*; Tridecanoyl = CCCCCCCCCCCCC(=O)*; Tic = O=C(O)[C@@H]1Cc2ccccc2CN1; Cha = N[C@@H](CC1CCCCC1)C(=O)O; β3hN = NC(=O)C[C@H](N)CC(=O)O; Pip = O=C(O)[C@@H]1CCCCN1; Nle = CCCC[C@H](N)C(=O)O; AEEA = NCCOCCOCC(=O)O; Aib = CC(C)(N)C(=O)O; Mpa = O=C(O)CCS
Would you mind telling me the reported EC50 Human APJ Receptor of each entry?
Write the number in nM without appending the unit.

Problem: Consider the binder shown here: {10K mPEG acetamide}-[Mpa]QRP[NMeR][Cha]SHKG[Oic][Nle][Aib][Phe(4-Cl)]-OH [SEQ ID NO: 120] What is its recorded EC50 Human APJ Receptor?
Solution: 63.2

Problem: Another binder to check: Palmitoyl-[AC4Abu][AEEA][AEEA][dQ]RP[NMeR][Cha]SHKG[Pip][Nle]P[Tic]-OH (SMILES CCCCCCCCCCCCCCCC(=O)NCCC(C(=O)O)C(=O)NCCOCCOCC(=O)NCCOCCOCC(=O)N[C@H](CCC(N)=O)C(=O)N[C@@H](CCCNC(=N)N)C(=O)N1CCC[C@H]1C(=O)N(C)[C@@H](CCCNC(=N)N)C(=O)N[C@@H](CC1CCCCC1)C(=O)N[C@@H](CO)C(=O)N[C@@H](Cc1c[nH]cn1)C(=O)N[C@@H](CCCCN)C(=O)NCC(=O)N1CCCC[C@H]1C(=O)N[C@@H](CCCC)C(=O)N1CCC[C@H]1C(=O)N1Cc2ccccc2C[C@H]1C(=O)O) [SEQ ID NO: 598]
Solution: 0.463

Problem: One more binder: Tridecanoyl-[γGlu][AEEA][AEEA][β3hN]RP[NMeR]LSHKGP[Nle]P[Phe(4-Cl)]-OH (SMILES CCCCCCCCCCCCC(=O)N[C@@H](CCC(=O)NCCOCCOCC(=O)NCCOCCOCC(=O)N[C@@H](CC(N)=O)CC(=O)N[C@@H](CCCNC(=N)N)C(=O)N1CCC[C@H]1C(=O)N(C)[C@@H](CCCNC(=N)N)C(=O)N[C@@H](CC(C)C)C(=O)N[C@@H](CO)C(=O)N[C@@H](Cc1c[nH]cn1)C(=O)N[C@@H](CCCCN)C(=O)NCC(=O)N1CCC[C@H]1C(=O)N[C@@H](CCCC)C(=O)N1CCC[C@H]1C(=O)N[C@@H](Cc1ccc(Cl)cc1)C(=O)O)C(=O)O) [SEQ ID NO: 420]
Solution: 0.0525
